target: Luciferin 4-monooxygenase (Photinus pyralis) (UniProt P08659); experiment: inhibition of purified Photinus pyralis luciferase – biochemical, luminescence, purified enzyme, 2006 set, primary screen (AID 1141); conditions: purified firefly luciferase, SteadyGlo luminescence, 30 min; higher = more signal, called active from +8 up or from −8 down;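 further: cell-free assay with purified firefly luciferase at 100 ng per well in PBS; test concentration not given here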
Sequence (P08659 whole entry, looked up): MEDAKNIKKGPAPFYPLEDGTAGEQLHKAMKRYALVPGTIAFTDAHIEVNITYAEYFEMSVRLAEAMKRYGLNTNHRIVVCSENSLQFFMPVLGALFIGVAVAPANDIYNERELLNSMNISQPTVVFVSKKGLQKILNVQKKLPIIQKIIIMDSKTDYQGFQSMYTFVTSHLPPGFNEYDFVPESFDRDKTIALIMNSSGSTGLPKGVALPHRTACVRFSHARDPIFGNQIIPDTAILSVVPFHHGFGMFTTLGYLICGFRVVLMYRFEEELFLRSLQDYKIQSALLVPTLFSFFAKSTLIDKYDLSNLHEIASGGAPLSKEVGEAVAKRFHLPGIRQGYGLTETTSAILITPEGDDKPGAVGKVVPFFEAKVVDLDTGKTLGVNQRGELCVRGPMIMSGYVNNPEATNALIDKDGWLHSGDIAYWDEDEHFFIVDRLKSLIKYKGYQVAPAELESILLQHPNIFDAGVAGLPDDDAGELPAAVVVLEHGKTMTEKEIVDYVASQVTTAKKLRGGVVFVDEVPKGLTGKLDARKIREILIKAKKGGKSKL
Lab note: anything with z-score at or over -0.02 counts as class 1; the rest go in class 0.

compound	label
[N-]=[N+]=Nc1ccccc1C[C@@]1(C(=O)N2CCCCC2)N=C(c2ccc(OCCCO)cc2)O[C@@H]1c1ccccc1	class 0
CCCC=C(CCC)[C@@H](NC(=O)OCC(C)C)c1ccccc1	class 1
COC(=O)[C@@]1(Cc2ccccc2)[C@H]2c3cc(C(=O)N4CCCC4)n(Cc4c(CO)[nH]cc(C)c4=O)c3C[C@H]2CN1C(=O)c1ccccc1	class 1
C=CCN(Cc1ccccc1)C(=O)C(c1cccs1)N(C(=O)/C=C\C(=O)O)c1ccc(CCOCCO)cc1 (stereo not given)	class 0
C=CCNC(=O)[C@H]1[C@@H]2C(=O)O[C@@H](c3ccccc3)[C@@H](c3ccccc3)N2[C@@H](c2ccc(O)cc2)[C@]12C(=O)Nc1ccc(C#CCCO)cc12	class 1
CN(C)CCCCCCNC(=O)[C@@H]1C[C@@H]2C(=O)N[C@@H](CCCC[N+](C)(C)C)C(=O)N2[C@@H]1c1ccc(O)cc1	class 0
CCOC(=O)C[C@H]1[C@H](OC(=O)c2cc3ccccc3oc2=O)[C@@H](NC(=O)CC(C)C)c2cc(OCCCO)ccc2N1C(=O)c1ccccc1	class 0
COC(=O)[C@@]1(Cc2ccc(F)cc2)[C@H]2c3cc(C(=O)N(C)C)n(Cc4cc(C)n(C)n4)c3C[C@H]2CN1C(=O)c1ccccc1	class 1
CCOC(=O)C1=CCC(c2ccc(F)cc2)N(S(=O)(=O)c2ccc(C)cc2)C1 (stereo not given)	class 1
CN(C)CCCCNC(=O)[C@@H]1C[C@@H]2C(=O)N[C@@H](CCCCN)C(=O)N2[C@@H]1c1ccc(O)cc1	class 0
COC(=O)[C@H](Cc1ccccc1)N[C@H](/C=C/C1CC1)[C@@H](O)Cc1ccccc1	class 1
Cc1ccc(S[C@]2(C(=O)O)CC(=O)N(C(C)C)[C@@H]2c2ccc(CO)cc2)cc1	class 1
C#CCN1[C@@H](Cc2ccc(O)cc2)C(=O)O[C@H](Cc2ccccc2)[C@@H]1/C=C/C1CC1	class 0
C=C(CCCC)/C(=C/C[C@H](OC(=O)c1ccncc1)c1ccc(OCCO)cc1)c1cc(C(=O)OC)ccc1OC	class 0
O=C(O)C1N=C(c2ccc(OCCCO)cc2)N(c2ccccc2)O1 (stereo not given)	class 0

----------
molecular target: Follistatin-related protein 3 (Homo sapiens) (UniProt O95633); experiment: compounds binding follistatin-related protein 3 – biochemical, small-molecule microarray, 635 nm fluorescence, primary screen (AID 1105); details: FSTL3 binding, higher = more signal;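 further: score merges emission near 667 nm and signal to noise per printed spot across three slides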
Sequence (O95633 whole entry, looked up): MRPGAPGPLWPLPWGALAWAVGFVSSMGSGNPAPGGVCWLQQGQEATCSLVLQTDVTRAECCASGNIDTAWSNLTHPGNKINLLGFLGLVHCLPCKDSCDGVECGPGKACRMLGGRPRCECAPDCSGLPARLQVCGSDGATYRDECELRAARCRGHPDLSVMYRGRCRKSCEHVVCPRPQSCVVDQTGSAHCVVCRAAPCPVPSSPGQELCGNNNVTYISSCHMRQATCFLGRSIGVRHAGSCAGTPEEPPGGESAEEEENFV
Decide by composite z-score: equal to or exceeding -0.09 means yes, less means no.

compound	label
C=C(CCCC)C(=O)CC[C@H](OC(=O)c1cccnc1)c1ccc(OCCO)cc1	no
COCCOC(=O)N1C(=O)[C@@]2(c3cc(C#CC4=CCCCC4)ccc31)[C@H](c1ccc(OCCO)cc1)N1[C@H](c3ccccc3)[C@H](c3ccccc3)OC(=O)[C@H]1[C@@H]2C(=O)N1CCc2cc(OC)c(OC)cc2C1	yes
O=C1NC(=O)C2C1C=CC(C(O)c1ccc(I)cc1)N2Nc1ccccn1 (stereo not given)	yes
COCCOC(=O)N1C(=O)[C@@]2(c3cc(C#CC4(O)CCCCCC4)ccc31)[C@H](c1ccccc1OCCO)N1[C@H](c3ccccc3)[C@H](c3ccccc3)OC(=O)[C@H]1[C@@H]2C(=O)N1CCc2cc(OC)c(OC)cc2C1	yes
COC(=O)c1c(CC[C@@H](CO)NC(=O)N[C@@H](Cc2ccccc2)Cn2cc(-c3ccccn3)nn2)oc(C(=O)N2CCOCC2)c1C(=O)OC	yes
